Source of measurements: the RNAGym collection of RNA variant scans (doi:10.1101/gr.219683.116)

B1: mRNA-splicing (parent)
chain: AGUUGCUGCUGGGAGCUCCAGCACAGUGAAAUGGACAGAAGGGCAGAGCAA

- Variants of: B1
- ASSAY_DETAILS: exon inclusion enrichment index; higher = more inclusion; WT1 exon 5 minigene, HEK293
REPORTED_ENDPOINT: exon inclusion enrichment index
Lab note: record the figure alone, no unit after it.

For orientation, consider the following solved cases.
C6A U7A C9A U10A A14C G15U :: 0.408
G5C C6U G8C C9U U10C G42C G43C :: 2.72
C6A U7C C9A U10C G21A C22U :: 2.22
G5A C6U U7A G8U :: 0.171
G5A C6G U7G C9A C24G :: 0.00883

Request: Quick one: exon inclusion enrichment index for G5U C6A U7C C9A U10C ?
Result: 2.8

Request: Quick one: exon inclusion enrichment index for A14U G15A ?
Result: 0.0161

Request: Quick one: exon inclusion enrichment index for G5A U7C G8A U10C G15C C16G ?
Result: 2.13

Request: Quick one: exon inclusion enrichment index for G5A C6G U7G C9A U10C G11A ?
Result: 0.0011

Request: Quick one: exon inclusion enrichment index for C6A U7A C9A U10A A25U G26A ?
Result: 0.899

Request: Quick one: exon inclusion enrichment index for G5A C6U U7A G8U C9A G38C A39U ?
Result: 0.0021

Request: Quick one: exon inclusion enrichment index for G5A U7C G8A U10C C36U A37G ?
Result: 2.16

Request: Quick one: exon inclusion enrichment index for G5U G8U C9U A30C ?
Result: 0.172

Request: Quick one: exon inclusion enrichment index for G5A C6G U7G C9A A29U A30G ?
Result: 0.00279

Request: Quick one: exon inclusion enrichment index for C6A U7A C9A U10A A39U A40C ?
Result: 1.19

Request: Quick one: exon inclusion enrichment index for G5C C6U G8C C9U U10C C16U U17G ?
Result: 0.905

Request: Quick one: exon inclusion enrichment index for G5C C6U G8C C9U U10C A37G G38U ?
Result: 0.627
